tested-on: Cyclin-dependent kinase 1/cyclin B1 (Homo sapiens, UniProt P06493+P14635)
Sequence (P06493 whole entry, looked up): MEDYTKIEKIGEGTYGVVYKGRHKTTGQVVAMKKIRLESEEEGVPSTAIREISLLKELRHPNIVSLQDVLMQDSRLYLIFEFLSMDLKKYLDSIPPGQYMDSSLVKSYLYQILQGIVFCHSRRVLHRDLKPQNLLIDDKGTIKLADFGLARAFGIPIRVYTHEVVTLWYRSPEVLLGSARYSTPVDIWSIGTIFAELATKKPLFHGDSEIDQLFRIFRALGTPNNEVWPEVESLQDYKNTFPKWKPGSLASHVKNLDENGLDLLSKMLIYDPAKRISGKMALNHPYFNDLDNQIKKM
Sequence (P14635 whole entry, looked up): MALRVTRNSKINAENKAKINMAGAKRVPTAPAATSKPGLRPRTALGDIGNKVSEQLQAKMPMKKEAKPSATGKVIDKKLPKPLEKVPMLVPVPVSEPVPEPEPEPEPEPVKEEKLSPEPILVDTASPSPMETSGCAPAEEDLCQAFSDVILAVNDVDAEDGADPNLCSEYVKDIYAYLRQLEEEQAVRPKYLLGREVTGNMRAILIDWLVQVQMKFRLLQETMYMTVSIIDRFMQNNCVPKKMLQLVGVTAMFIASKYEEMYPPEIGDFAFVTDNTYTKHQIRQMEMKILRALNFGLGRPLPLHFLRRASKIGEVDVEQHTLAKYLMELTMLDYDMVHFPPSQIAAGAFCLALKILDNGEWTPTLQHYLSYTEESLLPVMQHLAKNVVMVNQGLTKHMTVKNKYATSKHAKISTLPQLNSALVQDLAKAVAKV
procedure-text: Inhibition of starfish oocyte (Marthasteria glacialis) Cyclin-dependent kinase 1-cyclin B1 at a concentration of 100 uM
Assay type: protein-complex assay
experimental-parameters: Asteroidea
test-readout: inhibition (%)
Respond numerically; units are % and should not be typed.

Query: Give the reported value of inhibition for this record: Nc1nc(OCC2CCCO2)c2[nH]cnc2n1 (stereo unspecified)
Response: 49

Query: Give the reported value of inhibition for this record: Nc1nc(OC[C@@H]2CCC(=O)N2)c2nc[nH]c2n1
Response: 22

Query: Give the reported value of inhibition for this record: Nc1cccc(COc2nc(N)nc3[nH]cnc23)c1
Response: 65

Query: Give the reported value of inhibition for this record: Nc1nc(OCC2COC3(CCCCC3)O2)c2[nH]cnc2n1 (stereo unspecified)
Response: 26

Query: Give the reported value of inhibition for this record: Nc1nc(OC[C@H]2CCC(=O)N2)c2nc[nH]c2n1
Response: 50
